These entries and their values trace back to patent US20200024330A1.

- target_of_assay: HIV-1 JR-CSF Env T319A (HIV-1 isolate JR-CSF) (UniProt P20871)
- method_summary: cell-based or functional assay
test_readout: Fold IC50 increase relative to wild-type (fold)

[
  {
    "binder": "PGT-135 (antibody, V domains shown) VH: QLQMQESGPGLVKPSETLSLSCTVSGDSIRGGEWGDKDYHWGWVRHSAGKGLEWIGSIHWRGTTHYKESLRRRVSMSIDTSRNWFSLRLASVTAADTAVYFCARHRHHDVFMLVPIAGWFDVWGPGVQVTVSS VL: EIVMTQSPDTLSVSPGETVTLSCRASQNINKNLAWYQYKPGQSPRLVIFETYSKIAAFPARFVASGSGTEFTLTINNMQSEDVAVYYCQQYEEWPRTFGQGTKVDIK",
    "test_readout": "Fold IC50 increase relative to wild-type",
    "observed": 0.4
  },
  {
    "binder": "PGT-128 (antibody, V domains shown) VH: QPQLQESGPTLVEASETLSLTCAVSGDSTAACNSFWGWVRQPPGKGLEWVGSLSHCASYWNRGWTYHNPSLKSRLTLALDTPKNLVFLKLNSVTAADTATYYCARFGGEVLRYTDWPKPAWVDLWGRGTLVTVSS VL: QSALTQPPSASGSPGQSITISCTGTSNNFVSWYQQHAGKAPKLVIYDVNKRPSGVPDRFSGSKSGNTASLTVSGLQTDDEAVYYCGSLVGNWDVIFGGGTKLTVL",
    "test_readout": "Fold IC50 increase relative to wild-type",
    "observed": 0.5
  },
  {
    "binder": "PGT-131 (antibody, V domains shown) VH: QVQLQESGPGLVKPSETLSLTCTVSGDSINTGHHYWGWVRQVPGKGPEWIAHIHYNTAVLHNPALKSRVTISIFTLKNLITLSLSNVTAADTAVYFCVRSGGDILYYIEWQKPHWFYPWGPGILVTVSS VL: QSALTQPPSASGSLGQSLTISCSGTGSDIGSWNFVSWYQQFPGRAPNLIIFEVNRRRSGVPDRFSGSKSGNTASLTVSGLRSEDEAEYFCSSLSGRWDIVFGGGTKVTVL",
    "test_readout": "Fold IC50 increase relative to wild-type",
    "observed": 0.9
  }
]
